Source of measurements: patent US4894453A

Tested on: lipoperoxide generation in rat cerebrum
protocol-details: Antioxidant activity (inhibition of lipoperoxide generation, method of Stocks et al.)
Assay type: biochemical
measurement-parameters: 100 μM; rat cerebrum supernatant, 37° C., 15 min, thiobarbituric acid, 532 nm; hydrochloride salt
readout-label: inhibition ratio, lipoperoxide generation (antioxidant activity) (%)
A number alone suffices; assume %.

Some compounds with recorded inhibition ratio, lipoperoxide generation (antioxidant activity):
{"compound": "CCCCCCCCCCCCCCc1nc2c(nc1OCCN1CCN(CCCC)CC1)CCCC2 [Compound 600]", "assay-target": "lipoperoxide generation in rat cerebrum", "measure-unit": "%", "recorded-number": 61}
{"compound": "CCCCCCCCc1nc2c(nc1OCCN1CCN(Cc3ccccc3)CC1)CCCC2 [Compound 574]", "assay-target": "lipoperoxide generation in rat cerebrum", "measure-unit": "%", "recorded-number": 71}
{"compound": "CCCCCCCCc1nc2c(nc1OCCN1CCCN(Cc3ccc(F)cc3)CC1)CCCC2 [Compound 576]", "assay-target": "lipoperoxide generation in rat cerebrum", "measure-unit": "%", "recorded-number": 85}
{"compound": "CCCCCCCCCc1nc2c(nc1OCCN1CCN(Cc3ccccc3)CC1)CCCC2 [Compound 581]", "assay-target": "lipoperoxide generation in rat cerebrum", "measure-unit": "%", "recorded-number": 71}
{"compound": "CCc1nc(C)c(C)nc1OCCN1CCCN(Cc2ccc([N+](=O)[O-])cc2)CC1 [Compound 502]", "assay-target": "lipoperoxide generation in rat cerebrum", "measure-unit": "%", "recorded-number": 69}

INPUT: Request body: readout inhibition ratio, lipoperoxide generation (antioxidant activity), system lipoperoxide generation in rat cerebrum, query CCCCCCCCCc1nc2c(nc1OCCN1CCN(Cc3ccc(OC)cc3)CC1)CCCC2 [Compound 582] . Return the value.
OUTPUT: 82

INPUT: Field: inhibition ratio, lipoperoxide generation (antioxidant activity) (lipoperoxide generation in rat cerebrum). Entry: CCCCCCCCCCc1nc2c(nc1OCCN1CCCCC1)CCCC2 [Compound 586]
OUTPUT: 68

INPUT: // lookup inhibition ratio, lipoperoxide generation (antioxidant activity) | system=lipoperoxide generation in rat cerebrum | key= CCCCCCCCc1nc2c(nc1OCCN1CCN(Cc3ccc(Cl)cc3)CC1)CCCC2 [Compound 575]
OUTPUT: 79
